Target: IL-6/STAT3 signaling pathway
Assay: STAT3-dependent luciferase reporter assay
Format: cell-based, human
Settings: HepG2/STAT3 luciferase cells, compound 1 h then IL-6 10 ng/mL 5.5 h
pIC50: −log10 of the molar value.
observable: pIC50

compound	target	reported measurement
CC(C)(C)c1nc2c3cc[nH]c(=O)c3c3cc(F)ccc3c2[nH]1 [pyridone 6, reference compound]	IL-6/STAT3 signaling pathway	7.70

----------
Test system: HCC CSCs isolated from HCC Huh-7 cells
Experiment: Tumorsphere formation assay
Format: cell-based, human
Conditions: Homo sapiens, Huh-7; HCC CSCs, 72 h, spheres larger than 50 μm counted
observable: IC50 (nM)

smiles record	reported measurement
CCOC1=CC(=O)c2c(cc(C)c(C(C)=O)c2O)C1=O	2700

Taken from paper PMC6359800.
